Molecular target: pooled human IgG (human); further: test concentration or dose not given here
Experiment: cell-based or functional assay
Collected Enzyme Activity Endpoint Assay (purified): Fc values appear next to each entry.
Readout Kind: Enzyme Activity Endpoint Assay (purified): Fc (ng/µL)

• PRT-197 (enzyme) MEVVEVWPYGQNPNGKTEILSQTEDSESLQRLRDIEDFQAEKKMQNVVYTKWLDGVDVKDHDFRKIVDGNIAYYATPLLNGRGFYDINKDFNRDSDKCAAAVAANMFHYWLDINRDNVDRFLRQNPEKHGIIELPDGQLKLSDFLNTYESDHGYRDKSKLFDFISNNFNGPVWTDKLLDNYINGYAYNYKYGRTIEDPTKNTSKINFFKEVFNEKILTNNHSIRNQNEFSDLLSEALYTGKAIGLSYGPAGLRHSLGHIISVWGADLDADGNVVAIYVTDSDDKKLTIGDERVGLKRYKISTDDENRARLTAYEETDNTGGQIRGLYTLDTGKQAWADYFDKTEQTGTDQAEQLEHHHHHH = 179
• PRT-224 (enzyme) MEVVEVWPYGQNPNGKTEILSQTEDSESLQRLRDIEDFQAEKKKQNVVYTKWLDGVDVKDHDFRKIVDGNIAYYATPLLNGRGFYDINKDFNRDSDKCAAAVAANMFHYWLDINRDNVDRFLRQNPEKHGIIELPDGQLKLSDFLNTYESDHGYRDKSKLFDFISNNFNGPVWTDKLLDNYINGYAYNYKYGRTIEDPTKNTSKINFFKEVFNEKILTNNHSIRNQNEFSVLLSEALYTGKAIGLSYGPAGLRHSLGHIISVWGADLDADGNVVAIYVTDSDDKKLTIGDERVGLKRYKISTDDEGRLRLTAYEETHNTGGQIRGLWTLDTGKQAWADYFDKTEQTGTDQAEQLEHHHHHH = 382
• PRT-205 (enzyme) MEVVEVWPYGQNPNGKTEILSQTEDSESLQRLRDIEDFQAEKKKEGVVYTKWLDGVDVDDHDFRKIVDGNIAYYATPLLNGRGFYDINKDFNRDSDKCAAAVAANMFHYWLDRNRDNVDRFLKQNPEKHGIIELPDGQLKLSDFLNTYESDNGYRDKSKLFDFISNNFNGPVWTDKLLDNYINGYAYNYKYGRTIEDPTKNTSKINFFKEVFNEKILTNNHSIRNYNTFSDLLSEALYTGKAIGLSYGPAGLRHSLGHIISVWGADLDADGNVVAIYVTDSDDKKLTIGDERVGLKRYKVSSDDENRLRLTAYEETHNTGGQIRGIYTLDTGKQAWADYFDKTEQTGTDQAEQLEHHHHHH = 216
• PRT-218 (enzyme) MEVVEVWPYGQNPNGKTEILSQTEDSESLQRLRDIEDFQAEKKKQGVVYTKWLDGVNVDDHEFRKITDGNTEYYATPLLNGRGYYDINKDFNRDSDKCAAAVAANMFHYWLDRNRDNVDRFLRQNPDKHGIIELPDGQLKLSDFLNTYESDHDYRDKSKLFDFISNNFNGPVWTNKLLDNYINGYGYNYKYGRTIEDPTKNTSKINFFKEVFNGKLLTDNHSIRNKNEFSSKLSEALYTGKAIGLSYGPAGLRHSLGHIISVWGADLDEDGNVVAIYVTDSDDKKLTIGDERVGLKRYKVSYDDEGRARLTAYEETDNTGGEIRGLYTLDTGKQYWADYFDKTEQTGTDQAEQLEHHHHHH = 39
• PRT-200 (enzyme) MEVVEVWPYGQNPNGKTEILSQTEDSESLQRLRDIEDFQAEKKMQNVVYTKWLDGVDVKDHDFRKIVDGNIAYYATPLLNGRGFYDINKDFNRDSDKCAAAVAANMFHYWLDINRDNVDRFLRQNPEKHGIIELPDGQLKLSDFLNTYESDHGYRDKSKLFDFISNNFNGPVWTDKLLDNYINGYAYNYKYGRTIEDPTKNTSKINFFKEVFNEKILTNNHSIRNQNEFSDLLSEALYTGKAIGLSYGPAGLRHSLGHIISVWGADLDADGNVVAIYVTDSDDKKLTIGDERVGLKRYKISTDDENRARLTAYEETDNTGGQIRGLWTLDTGKQAWADYFDKTEQTGTDQAEQLEHHHHHH = 0
• PRT-203 (enzyme) MEVVEVWPYGQNPNGKTEILSQTEDSESLQRLRDIEDFQAEKKKQNVVYTKWLDGVDVKDHDFRKIKDGNIEYYATPLLNGRGFYDINKDFNRDSDKCAAAVAANMFHYWLDRNRDNVDRFLRQNPEKHGIIELPDGQLKLSDFLNTYESDDGYRDKSKLFDFISNNFNGPVWTDKLLDNYINGYAYNYKYGRTIEDPTKNTSKINFFKEVFNEKILTNNHSIRNQNEFSVLLSEALYTGKAIGLSYGPAGLRHSLGHIISVWGADLDADGNVVAIYVTDSDDKKLTIGDERVGLKRYKISTDDEGRARLTAYEETHNTGGQIRGLWTLDTGKQAWADYFDKTEQTGTDQAEQLEHHHHHH = 0
• PRT-204 (enzyme) MEVVEVWPYGQNPNGKTEILSQTEDSESLQRLRDIEDFQAEKKMQNVVYTKWLDGVTVKDHDFRKIVDGNIAYYATPLLNGRGFYDINKDFNRDSDKCAAAVAANMFHYWLDRNRDNVDRFLSQNPEKHGIIELPDGQLKLSDFLNTYESDNGYRDKSKLFDFISNNFNGPVWTDKLLDNYINGYAYNYKYGRTIEDPTKNTSKINFFKEVFNEKILTNIHSIRNQNEFSDLLSEALYTGKAIGLSYGPAGLRHSLGHIISVWGADLDADGNVVAIYVTDSDDKKLTIGDERVGLKRYKISTDDEGRARLTAYEETDNTGGQIRGLETLDTGKYAWADYFDKTEQTGTDQAEQLEHHHHHH = 0
